B1: library; numbered along this chain (parent)
chain: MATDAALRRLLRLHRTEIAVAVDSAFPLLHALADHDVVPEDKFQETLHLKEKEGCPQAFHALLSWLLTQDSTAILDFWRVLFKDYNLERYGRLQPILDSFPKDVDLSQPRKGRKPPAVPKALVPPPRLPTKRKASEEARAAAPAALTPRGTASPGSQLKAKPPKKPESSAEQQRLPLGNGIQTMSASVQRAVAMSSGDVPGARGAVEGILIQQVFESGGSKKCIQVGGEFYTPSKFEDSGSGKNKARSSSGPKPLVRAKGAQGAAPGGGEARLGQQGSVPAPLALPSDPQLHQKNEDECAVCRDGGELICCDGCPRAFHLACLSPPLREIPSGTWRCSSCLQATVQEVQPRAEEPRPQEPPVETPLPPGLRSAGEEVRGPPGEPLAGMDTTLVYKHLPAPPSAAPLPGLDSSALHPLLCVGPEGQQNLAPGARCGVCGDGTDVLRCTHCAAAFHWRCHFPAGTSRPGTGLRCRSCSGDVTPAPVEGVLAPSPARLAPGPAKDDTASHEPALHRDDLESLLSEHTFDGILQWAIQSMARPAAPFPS

# Variants of: B1
# procedure summary: AIRE transcriptional activation functional score (insulin promoter-GFP; nonsense median 0, synonymous median 1) (normalised score); higher = higher AIRE activity (more reporter activation)
# measurement setup: with insulin promoter-GFP reporter in HEK293
// thresholds for AIRE transcriptional activation functional score classes: lower band: < 0.4; central band: ≥ 0.4 and < 1; upper band: ≥ 1

Some entries whose results are on file:
{"mutant name": "E375K", "answer label": "upper band"}
{"mutant name": "P162C", "answer label": "upper band"}

Qu. Field: class (AIRE transcriptional activation functional score) — entry: "L67M"
Ans. central band

Qu. Kindly identify the class of "V206H" .
Ans. central band

Qu. Please let me know in which category the item "Q346L" belongs.
Ans. upper band

Qu. Tag the class for "P483Q"
Ans. central band

Qu. // return the class label for "R257V"
Ans. lower band
